Data origin: patent US8211929B2

- Subject of test: IGF 3P (Homo sapiens)
- Construct: human IGF1R kinase domain residues M954-C1367; made in house; host or cells: baculovirus expression (insect cells)
- Sequence (P08069 954-1367): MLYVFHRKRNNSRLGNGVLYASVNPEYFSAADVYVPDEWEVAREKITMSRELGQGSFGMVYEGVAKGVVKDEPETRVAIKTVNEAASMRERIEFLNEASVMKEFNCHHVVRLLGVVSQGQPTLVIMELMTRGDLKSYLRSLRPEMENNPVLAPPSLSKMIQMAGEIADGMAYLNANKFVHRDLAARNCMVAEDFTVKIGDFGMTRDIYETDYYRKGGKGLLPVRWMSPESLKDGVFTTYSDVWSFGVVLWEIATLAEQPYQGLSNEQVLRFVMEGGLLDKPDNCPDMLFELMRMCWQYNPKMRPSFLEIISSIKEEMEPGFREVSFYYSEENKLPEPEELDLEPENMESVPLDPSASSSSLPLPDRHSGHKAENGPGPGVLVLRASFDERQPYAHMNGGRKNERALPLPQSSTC
- Experiment description: IGF1R kinase assay (LCCA), IGF 3P
- Type: biochemical
- Assay setup: IGF1R kinase LCCA assay
pIC50: −log10 of the molar value.
Reported property: pIC50

Sample records with pIC50:
# Compound, pIC50
data = [
    ("Cc1cc(Nc2cc(C3CC3)[nH]n2)nc(NCc2cc(-c3cccc(Br)c3)no2)n1", "6.30 to 7.30"),
    ("Brc1cnc(NC2CCCc3ccccc32)nc1Nc1cc(C2CC2)[nH]n1 (stereo not shown)", "5.30 to 6.30"),
    ("CC(C)(C)OC(=O)NCc1ccc(Nc2ncc(Br)c(Nc3cc(C4CC4)[nH]n3)n2)cc1", "6.30 to 7.30"),
]

Turning now to a further record.
Kindly note the recorded pIC50 for `Cc1cc(Nc2cc(C3CC3)n[nH]2)nc(Nc2ccc(C3CCN(C(=O)OC(C)(C)C)CC3)cc2)n1` , which is 5.30 to 6.30
